Origin of the recorded values: the METLIN SMRT retention time set (Domingo-Almenara et al. 2019)

test: gradient 5% acetonitrile 3 min, to 50% in 2 min, to 85% in 15 min, held 3 min, 100 µL/min; settings: column: Zorbax Extend-C18 2.1 x 50 mm; eluents: water / acetonitrile, 0.1% formic acid
measured.property: RP-LC retention time (s)

| compound | measured.property | measured.result |
| --- | --- | --- |
| O=C(C1COc2ccccc2O1)N1CCc2cc(-c3csc(C4CC4)n3)ccc21 (stereo not given) | RP-LC retention time | 1190 |
| O=C(c1ccco1)N1[C@H]2CC[C@@H]1c1cnc(-c3ccc(F)cc3)nc1C2 | RP-LC retention time | 858 |
| O=C(CSc1nc2ccccc2o1)OCc1cc(-c2ccc3c(c2)OCCO3)on1 | RP-LC retention time | 1000 |
| COc1cccc(-c2noc(Cn3nc(-c4ccccc4)ccc3=O)n2)c1 | RP-LC retention time | 998 |
| Cc1sc2ccn(C)c(=O)c2c1C(=O)N1CCN(c2ccccc2)CC1 | RP-LC retention time | 728 |
